Molecular target: T1, 5-Helix (HIV-1 group M subtype B, HXB2 (gp41 …, stabilised))
T1 construct: also called designed protein based on HIV-1 gp41
Assay: ELISA
Conditions: one partner purified
READOUT TYPE: phage ELISA signal OD450 (OD450)
One number for each entry, in OD450.

Below are worked cases with known answers.
BINDER | READOUT TYPE | MEASURE UNIT | ASSAY VALUE
25A6 bivalent scFv on phage (scFv, V domains shown) VH: QVQLVQSGAEVRKPGASVKVSCKASGDTFSSYAISWVRQAPGQGLEWMGGIIPIFGTANYAQAFQGRVTITANESTSTAYMELSSLRSEDTAIYYCARDNPTLLGSDYWGAGTLVTVSS VL: DIQMTQSPSTLSASIGDRVTITCRASEGIYDGLAWYQQKPGKAPKLLISRAYYLASGAPSRFSGSGSGTDFTLTISSLQPDDFATYYCQQRANYPHTFGGGTKLEIK | phage ELISA signal OD450 | OD450 | 3.1
25E1 bivalent scFv on phage (scFv, V domains shown) VH: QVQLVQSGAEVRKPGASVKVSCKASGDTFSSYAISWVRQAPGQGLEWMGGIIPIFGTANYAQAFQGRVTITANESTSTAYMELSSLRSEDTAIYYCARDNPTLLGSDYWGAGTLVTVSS VL: DIQMTQSPSTLSASIGDRVTITCRASEDIGGSLAWYQQKPGKAPKLLISHAYSLASGAPSRFSGSGSGTDFTLTISSLQPDDFATYYCQQHATYPHTFGGGTKLEIK | phage ELISA signal OD450 | OD450 | 3
25B6 bivalent scFv on phage (scFv, V domains shown) VH: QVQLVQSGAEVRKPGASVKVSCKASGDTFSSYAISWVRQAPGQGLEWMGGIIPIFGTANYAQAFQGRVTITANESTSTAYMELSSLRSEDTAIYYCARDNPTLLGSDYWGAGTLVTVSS VL: DIQMTQSPSTLSASIGDRVTITCRASENIRSGLAWYQQKPGKAPKLLIYRASRLASGAPSRFSGSGSGTDFTLTISSLQPDDFATYYCQQYDDYPHTFGGGTKLEIK | phage ELISA signal OD450 | OD450 | 1.4

Exercise: Tell me its phage ELISA signal OD450 given 16G6 bivalent scFv on phage (scFv, V domains shown) VH: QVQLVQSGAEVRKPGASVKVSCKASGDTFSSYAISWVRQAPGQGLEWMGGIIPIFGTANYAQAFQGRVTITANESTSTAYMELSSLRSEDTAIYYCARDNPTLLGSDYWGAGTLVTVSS VL: DIQMTQSPSTLSASIGDRVTITCRASEGIRRSLAWYQQKPGKAPKLLISNASHLASGAPSRFSGSGSGTDFTLTISSLQPDDFATYYCQQYYNYPRTFGGGTKLEIK as the entry.
Key: 2.3
